Please provide measured logP for the entries that follow.
- test-description: log P by HPLC on reversed-phase column (EEC Directive 79/831 Annex V.A8)
- Assay type: physicochemical
Give bare numbers.

[
  {
    "compound": "Cn1nc(C(F)F)c(C(=O)N(CC#Cc2ccccc2)C2CC2)c1F [Example 271]",
    "measurement": 3.19
  },
  {
    "compound": "Cn1nc(C(F)F)c(C(=O)N(CC#Cc2ccccc2)C2CCCC2)c1Cl [Example 274]",
    "measurement": 3.92
  }
]

Record logP per entry; entries follow.
1. CCC(COc1cc(OC)ccn1)NC(=O)c1c(C(F)F)nn(C)c1Cl (stereo not drawn) [Example 43]
2. Cn1nc(C(F)F)c(C(=O)N(CC#Cc2cccs2)C2CC2)c1F [Example 282]
3. CN(CCCc1ccccc1Cl)C(=O)c1c(C(F)F)nn(C)c1F [Example 142]
4. C=CCC1CCCCC1N(C(=O)c1c(C(F)F)nn(C)c1F)C1CC1 (stereo not drawn) [Example 346]
5. CC(CCc1ccc(Cl)cc1Cl)N(C(=O)c1c(C(F)F)nn(C)c1Cl)C1CC1 (stereo not drawn) [Example 183]
6. CC(CCc1ccccc1C(F)(F)F)N(C(=O)c1c(C(F)F)nn(C)c1F)C1CC1 (stereo not drawn) [Example 221]
7. CN(C(=O)c1c(C(F)F)nn(C)c1Cl)C(CSCc1ccccc1)C1CC1 (stereo not drawn) [Example 224]

1.86
3.00
3.06
3.94
4.72
4.09
3.62

State the recorded logP for every item in the following list.
1. Cn1nc(C(F)F)c(C(=S)N(C[Si](C)(C)Cc2ccc(Cl)cc2Cl)C2CC2)c1F [Example 299]
2. Cn1nc(C(F)F)c(C(=O)NC2(C(F)(F)F)CCCCC2)c1F [Example 387]

1: 5.57; 2: 3.00

Dear colleague, could you please provide logP for the compounds listed below?
1. Cn1nc(C(F)F)c(C(=O)N(CC2CCCCC2c2ccccc2Cl)C2CC2)c1F (stereo not drawn) [Example 241]
2. C#CC1(NC(=O)c2c(C(F)F)nn(C)c2F)CCCCC1 [Example 385]
3. CCC(COc1cccc2ccccc12)NC(=O)c1c(C(F)F)nn(C)c1Cl (stereo not drawn) [Example 223]

1: 4.67; 2: 2.56; 3: 3.85

====

- test-description: log P by HPLC on reversed-phase column (EEC Directive 79/831 Annex V.A8)
- Type: physicochemical
What logP was measured for each of the following?
Numbers only.

Here are 2 compounds together with their reported answers.
[
  {
    "compound": "Cn1nc(C(F)F)c(C(=O)N(C2CC2)C2CCCCC2C(C)(C)C)c1F (stereo not shown)",
    "measurement": 4.71
  },
  {
    "compound": "Cn1nc(C(F)F)c(C(=O)NC2(C(=O)Nc3ccccc3)CCCC2)c1Cl",
    "measurement": 2.62
  }
]

Shift focus to the following entry.
Given the entry "Cn1nc(C(F)F)c(C(=O)NCCOc2ccc(Oc3ccccc3)cc2)c1Cl" , report its measured logP.
3.55

====

- test-description: log P by HPLC on reversed-phase column (EEC Directive 79/831 Annex V.A8)
- Format: physicochemical
assay-readout: logP

[
  {
    "compound": "CC(C)CCC1CCCC1NC(=O)c1c(C(F)F)nn(C)c1Cl (stereo not shown) [Example 309]",
    "measurement": 4.20
  },
  {
    "compound": "CC(CCc1ccc(Cl)cc1Cl)NC(=O)c1c(C(F)F)nn(C)c1Cl (stereo not shown) [Example 185]",
    "measurement": 3.99
  },
  {
    "compound": "CC(CC(C)(C)C)C1CCCCC1NC(=O)c1c(C(F)F)nn(C)c1F (single isomer, unassigned) [Example 361]",
    "measurement": "4.89 isomer B"
  }
]

Please examine the following record next.
Value lookup for logP; key = CC(CCc1ccccc1)NC(=O)c1c(C(F)F)nn(C)c1Cl (stereo not shown) [Example 11]
3.04

====

- System: Alternaria solani
- test-description: In vivo preventive test on Alternaria solani (tomato)
- condition: 500 ppm of active ingredient, evaluated 7 days after inoculation
What Efficacy was measured for each of the following?
Give bare numbers, in %.

Answered cases to consult:
[
  {
    "molecule": "Cn1nc(C(F)F)c(C(=O)NC2CCCCC2Oc2ccccc2)c1F (stereo not drawn)",
    "measurement": 90
  },
  {
    "molecule": "CCC(COc1cccc2ccccc12)NC(=O)c1c(C(F)F)nn(C)c1F (stereo not drawn)",
    "measurement": 90
  },
  {
    "molecule": "CC(CC1CCCCC1NC(=O)c1c(C(F)F)nn(C)c1Cl)C1CC1 (stereo not drawn)",
    "measurement": 95
  },
  {
    "molecule": "Cc1cccc(C)c1OCC(C)N(C(=O)c1c(C(F)F)nn(C)c1Cl)C1CC1 (stereo not drawn)",
    "measurement": 80
  },
  {
    "molecule": "Cc1cccc(C)c1CCC(C)NC(=O)c1c(C(F)F)nn(C)c1F (stereo not drawn)",
    "measurement": 100
  },
  {
    "molecule": "CC(CNC(=O)c1c(C(F)F)nn(C)c1F)Cc1cc(Cl)cc(Cl)c1 (stereo not drawn)",
    "measurement": 90
  },
  {
    "molecule": "Cn1nc(C(F)F)c(C(=O)NCCOc2ccc(Oc3ccccc3)cc2)c1F",
    "measurement": 90
  },
  {
    "molecule": "CC(CC1CCCCC1)N(C(=O)c1c(C(F)F)nn(C)c1F)C1CC1 (stereo not drawn)",
    "measurement": 100
  }
]

Let's switch to this molecule now.
Record lookup: for Alternaria solani, what Efficacy belongs to CC(COc1cc(Cl)ccc1Cl)NC(=O)c1c(C(F)F)nn(C)c1F (stereo not drawn) ?
90

====

- test-description: log P by HPLC on reversed-phase column (EEC Directive 79/831 Annex V.A8)
- Type: physicochemical
- condition: log P (isomer B)
assay-readout: chromatographic logP
Give bare numbers.

Look up chromatographic logP for this compound: Cn1nc(C(F)F)c(C(=O)NC2CCCC2CCC(C)(C)C)c1F (stereo not shown)
4.28

====

Please provide measured Efficacy for the entries that follow.
- Test system: Alternaria solani
- test-description: In vivo preventive test on Alternaria solani (tomato)
- condition: 500 ppm of active ingredient, evaluated 7 days after inoculation
Numbers only, in %.

Reference set, count: 3
[
  {
    "compound": "Cc1ccnc(OCC(C)NC(=O)c2c(C(F)F)nn(C)c2Cl)c1 (stereo not shown)",
    "study-target": "Alternaria solani",
    "unit-name": "%",
    "measurement": 80
  },
  {
    "compound": "CN(c1ccc(Oc2ccccc2)cc1)C(CNC(=O)c1c(C(F)F)nn(C)c1Cl)C(F)(F)F (stereo not shown)",
    "study-target": "Alternaria solani",
    "unit-name": "%",
    "measurement": 95
  },
  {
    "compound": "CCCC1CCCCC1NC(=O)c1c(C(F)F)nn(C)c1F (single isomer, unassigned) [Example 344]",
    "study-target": "Alternaria solani",
    "unit-name": "%",
    "measurement": 100
  }
]

Now examine the next entry.
Find the recorded Efficacy belonging to "Cc1cccc(C)c1OCCNC(=O)c1c(C(F)F)nn(C)c1F" and report it.
90

====

- test-description: log P by HPLC on reversed-phase column (EEC Directive 79/831 Annex V.A8)
- Type: physicochemical
Give logP for every item shown.
Give bare numbers.

Below is a list of compounds. For each, state its recorded logP.
1. Cn1nc(C(F)F)c(C(=O)N(CCCc2cc3ccccc3o2)C2CC2)c1F
2. Cn1nc(C(F)F)c(C(=O)N(C2CC2)C2CCCCC2C2CCCCC2)c1Cl (stereo not drawn)
3. CCC(COc1cc(Cl)ccc1Cl)NC(=O)c1c(C(F)F)nn(C)c1F (stereo not drawn)
4. Cn1nc(C(F)F)c(C(=O)N(C[Si](C)(C)Cc2cccc(Cl)c2)C2CC2)c1F
5. Cn1nc(C(F)F)c(C(=O)NCCOc2ccc(Cl)cc2)c1Cl
6. CCC1(CNC(=O)c2c(C(F)F)nn(C)c2F)CCCCC1
7. CC(CCc1ccc(C(F)(F)F)cc1)NC(=O)c1c(C(F)F)nn(C)c1F (stereo not drawn)

1: 3.52; 2: 5.59; 3: 3.83; 4: 4.44; 5: 2.96; 6: 3.55; 7: 3.46

For every record below, what is its logP?
1. CC(COc1c(Cl)cc(Cl)cc1Cl)NC(=O)c1c(C(F)F)nn(C)c1F (stereo not drawn)
2. CON(CCC(C)c1ccc(C)o1)C(=O)c1c(C(F)F)nn(C)c1F (stereo not drawn)
3. Cc1cccc(C)c1OCCNC(=O)c1c(C(F)F)nn(C)c1F

[3.92, 3.23, 2.88]

====

- Tested on: Puccinia triticina
- test-description: In vivo preventive test on Puccinia triticina (wheat)
- condition: Table K, 500 ppm of active ingredient, evaluated 8 days after inoculation
Cut-off 80% on Efficacy, inclusive. At or above means Condition met; below means Condition not met.

[
  {
    "molecule": "CC(CCc1ccc(Cl)c(Cl)c1)N(C(=O)c1c(C(F)F)nn(C)c1Cl)C1CC1 (racemic)",
    "assigned-category": "Condition not met"
  },
  {
    "molecule": "Cn1nc(C(F)F)c(C(=O)N(C2CC2)C2CCCCC2Oc2ccccc2)c1F (centres unmarked) [Example 247]",
    "assigned-category": "Condition met"
  },
  {
    "molecule": "Cn1nc(C(F)F)c(C(=O)NC2CCCCC2Oc2ccccc2)c1F (centres unmarked)",
    "assigned-category": "Condition not met"
  },
  {
    "molecule": "CC(COc1ccc(Cl)cc1Cl)N(C(=O)c1c(C(F)F)nn(C)c1F)C1CC1 (centres unmarked)",
    "assigned-category": "Condition met"
  },
  {
    "molecule": "CC(CCc1ccccc1C(F)(F)F)N(C(=O)c1c(C(F)F)nn(C)c1F)C1CC1 (centres unmarked)",
    "assigned-category": "Condition met"
  }
]

Please look at the following molecule next.
Tell me whether Efficacy is at least 80% here: CCCC1CCCCC1NC(=O)c1c(C(F)F)nn(C)c1F (single isomer, unassigned) [Example 343]
Condition not met

Value source: patent US8999956B2
